Task for the reader: assign each of the following compounds its reported MIC.
# Test system: Acinetobacter baumannii isogenic strains
# Assay remarks: microbe, parasite or virus in culture
# Type: cell-based
# Experimental conditions: Acinetobacter baumannii, read-out: MIC values, strain Abl4256 (ST38)
Give bare numbers, in µg/mL.

Items follow; give MIC for each.
1. CN(C)c1cc(NC(=O)CNC(C)(C)C)c(O)c2c1C[C@H]1C[C@H]3[C@H](N(C)C)C(O)=C(C(N)=O)C(=O)[C@@]3(O)C(O)=C1C2=O [TIG, tigecycline]
2. C[C@@H](O)[C@H]1C(=O)N2C(C(=O)O)=C(SCCN=CN)C[C@H]12 [IMP, imipenem]
3. CO/N=C(\C(=O)N[C@@H]1C(=O)N2C(C(=O)[O-])=C(C[N+]3(C)CCCC3)CS[C@H]12)c1csc(N)n1 [FEP, cefepime]

[0.5, 64, 16]

---

# Test system: Acinetobacter baumannii isogenic strains
# Assay remarks: microbe, parasite or virus in culture
# Type: cell-based
# Experimental conditions: Acinetobacter baumannii, read-out: MIC values, strain Abl4256 (ST38)
Measurement type: MIC

Compound: C[C@H]1COc2c(N3CCN(C)CC3)c(F)cc3c(=O)c(C(=O)O)cn1c23 [LVX, levofloxacin]
Measured on: Acinetobacter baumannii isogenic strains
MIC: ≤ 1 µg/mL
--
Compound: C[C@@H](O)[C@H]1C(=O)N2C(C(=O)O)=C(S[C@@H]3CN[C@H](C(=O)N(C)C)C3)[C@H](C)[C@H]12 [MEM, meropenem]
Measured on: Acinetobacter baumannii isogenic strains
MIC: > 16 µg/mL

Now for a further compound.
Return reported MIC. Input compound: CC(C)(O/N=C(\C(=O)N[C@@H]1C(=O)N2C(C(=O)[O-])=C(C[n+]3ccccc3)CS[C@H]12)c1csc(N)n1)C(=O)O [CAZ, ceftazidime]
< 8 µg/mL

Every entry's value here was drawn from patent US10894085B2.
